efflux inhibition (fraction of control) values by entry
experimental.protocol: inhibitors of fungal efflux pumps CDR1, CDR2, MDR1, pilot screen, validation compound set, multiplex, phenotypic (AID 588506);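 also: Nile Red retained in cells so higher fluorescence means more efflux inhibition; 0 = negative control wells and 1 = enniatin B 25 µM full block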
assay.conditions: S. cerevisiae pump-expressing triplex, Nile Red efflux flow cytometry; at 10 µM; stronger effect = higher value; the pumps come from Candida albicans
The source made the active and inactive calls.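 The calls were made as follows: active = efflux inhibition above 0.42, the validation set average plus 4 SD; inconclusive = no clear call, values can overlap the other calls; inactive = the rest.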

# annotated cases, reported efflux inhibition (fraction of control) shown
[
  {
    "molecular.string": "CS(=O)(=O)Oc1ccc2c(c1)O/C(=C\\C=C\\c1ccccc1)C2=O",
    "result.value": "-0.14 (inactive)"
  },
  {
    "molecular.string": "COc1ccc2[nH]c3c(c2c1)CCn1c-3nc2ccccc2c1=O",
    "result.value": "-0.12 (inactive)"
  },
  {
    "molecular.string": "Nc1c2c(nc3ccccc13)CCCC2",
    "result.value": "0.05 (inactive)"
  }
]

# input for lookup
*Q* Which efflux inhibition (fraction of control) value belongs to OCC1(CCOc2ccccc2)CCN(CCCn2cccn2)CC1 ?
*A* -0.39 (inactive)

* * *

GFP response, % of DMSO values by entry
experimental.protocol: AGP1-GFP expression modulators, hit retest, confirmation, cell-based, flow cytometry, S. cerevisiae, cherry picks (AID 2273);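 also: median GFP channel fluorescence over the whole cell population gate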
assay.conditions: S. cerevisiae AGP1-GFP strain, 3 h, at 10 µM
Quick reminder: number only, in %, skip the unit.

# annotated cases, reported GFP response, % of DMSO shown
[
  {
    "molecular.string": "COc1ccccc1C(=O)N1CCN(c2cccc(Cl)c2)CC1",
    "GFP response, % of DMSO / %": 95.6
  },
  {
    "molecular.string": "CCOC(=O)C1=C(Cc2ccc(Cl)cc2)C(=O)c2ccccc2C1=O",
    "GFP response, % of DMSO / %": 97.3
  }
]

*Q* Which GFP response, % of DMSO value belongs to C(=N\Nc1ccccn1)/c1c[nH]c2ccccc12 ?
*A* 104

* * *

experimental.protocol: modulators of CIT2-GFP expression in yeast, confirmation, S. cerevisiae, GFP fusion, cherry picks, mother/daughter gates (AID 2274)
assay.conditions: S. cerevisiae CIT2-GFP strain, flow cytometry, 3 h; measured here: mother cell gate; at 10 µM; stronger effect = higher value
result.type: GFP response, % of DMSO (%)
Quick reminder: number only, in %, skip the unit.

[
  {
    "compound": "COc1ccc(C(=O)/C=C2/C(=O)Nc3ccccc32)cc1",
    "GFP response, % of DMSO [%]": 91.4
  },
  {
    "compound": "N/C(Cc1ccc(Cl)c(Cl)c1)=N\\OC(=O)c1cccs1",
    "GFP response, % of DMSO [%]": 159
  },
  {
    "compound": "Cc1cccn2c(=O)c(/C=C(\\C#N)C(=O)NCc3ccco3)c(N3CCOCC3)nc12",
    "GFP response, % of DMSO [%]": 98.1
  }
]

*Q* Which GFP response, % of DMSO value belongs to COc1cccc(C(=O)Nc2ccccc2)c1 ?
*A* 92.6

*Q* Which GFP response, % of DMSO value belongs to CCc1nnc(NC(=O)c2nc(S(=O)(=O)Cc3ccccc3)ncc2Cl)s1 ?
*A* 97.1

*Q* Which GFP response, % of DMSO value belongs to CC[n+]1c(/C=C/c2ccc(N(C)C)cc2)ccc2ccccc21 ?
*A* 96.8

*Q* Which GFP response, % of DMSO value belongs to CCN(CC)C(=O)c1ccc(-c2cccs2)s1 ?
*A* 97.3

*Q* Which GFP response, % of DMSO value belongs to Cc1cc(N2CCC(C)CC2)n2ncc(-c3ccccc3)c2n1 ?
*A* 101

*Q* Which GFP response, % of DMSO value belongs to CCOc1cc(C)c(S(=O)(=O)N2CCCC2)cc1C ?
*A* 80.9

*Q* Which GFP response, % of DMSO value belongs to Cc1c(NC(=O)/C(C#N)=C/c2c(N3CCCCC3)nc3ccccn3c2=O)c(=O)n(-c2ccccc2)n1C ?
*A* 101

*Q* Which GFP response, % of DMSO value belongs to COc1cc(NC(=O)c2cc3ccccc3o2)ccc1NC(=O)c1ccco1 ?
*A* 103

*Q* Which GFP response, % of DMSO value belongs to C/C(=N\NC(=O)c1nonc1N)c1cccs1 ?
*A* 98

*Q* Which GFP response, % of DMSO value belongs to COC(=O)c1ccc(CS(=O)(=O)c2ccc(F)cc2)o1 ?
*A* 98.2

*Q* Which GFP response, % of DMSO value belongs to CCNC(=O)c1ccccc1-c1nc(-c2ccccc2Cl)no1 ?
*A* 97.1

*Q* Which GFP response, % of DMSO value belongs to COc1ccc(C2CC(=O)C(C(c3ccc(O)cc3)C3C(=O)CC(c4ccc(OC)cc4)CC3=O)C(=O)C2)cc1 (centres undefined) ?
*A* 109

*Q* Which GFP response, % of DMSO value belongs to CCc1cccc2sc(N3CCN(C(=O)c4ccc([N+](=O)[O-])o4)CC3)nc12 ?
*A* 102

Cited source: PubChem BioAssay
